tgt: T1, human MSLN-R3-his protein (human, UniProt Q13421 487-598)
T1 construct: Region 3 of human mesothelin, made in HEK293E cells, His-tagged; also called human MSLN-R3 protein; hMSLN-R3-his; not shown: His tag
protocol-notes: ELISA on coated MSLN-R3; antibody 10 nM
Below, each entry is listed with its recorded OD450.

binder	OD450 / OD450
S009-F8-29.1 (antibody, human IgG1, kappa, V domains shown) VH: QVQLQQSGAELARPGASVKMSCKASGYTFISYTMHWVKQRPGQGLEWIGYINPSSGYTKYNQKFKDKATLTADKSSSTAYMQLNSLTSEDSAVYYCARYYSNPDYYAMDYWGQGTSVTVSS VL: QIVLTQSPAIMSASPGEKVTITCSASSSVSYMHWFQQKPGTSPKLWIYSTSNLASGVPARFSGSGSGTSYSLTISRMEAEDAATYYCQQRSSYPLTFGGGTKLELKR	0.06
S009-F8-9.16 (antibody, human IgG1, kappa, V domains shown) VH: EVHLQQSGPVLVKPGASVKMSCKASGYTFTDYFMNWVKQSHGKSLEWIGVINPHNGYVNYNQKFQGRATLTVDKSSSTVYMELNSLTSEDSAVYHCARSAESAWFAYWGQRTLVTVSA VL: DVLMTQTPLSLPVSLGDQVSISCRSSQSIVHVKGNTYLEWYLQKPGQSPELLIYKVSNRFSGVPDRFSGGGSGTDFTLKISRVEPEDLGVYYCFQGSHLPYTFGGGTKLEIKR	2.03
S009-F8-5.15 (antibody, human IgG1, kappa, V domains shown) VH: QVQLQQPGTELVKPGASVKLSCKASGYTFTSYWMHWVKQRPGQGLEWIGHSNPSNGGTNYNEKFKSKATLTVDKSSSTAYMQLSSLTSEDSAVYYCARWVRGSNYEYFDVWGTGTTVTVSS VL: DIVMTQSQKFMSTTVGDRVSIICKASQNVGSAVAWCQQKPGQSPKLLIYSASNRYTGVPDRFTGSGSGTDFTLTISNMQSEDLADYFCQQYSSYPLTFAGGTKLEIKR	0.05
